These data points were gathered from the supplement of paper PMC4314810.

# Test system: MCF7
# ASSAY_INFO: HRG-induced Akt activation (dPAkt = log2 pAkt/Akt HRG-stimulated minus log2 pAkt/Akt basal) (log2 ratio difference); higher = stronger HRG-induced Akt(T308) phosphorylation
# EXPERIMENTAL_CONTEXT: miRNA mimic concentration 10 nM; time after transfection 72 h; heregulin 10 ng/ml; stimulation time 1 h
Please provide measured HRG-induced Akt activation (log2) for the entries that follow.
One number for each entry.

Examples with their reported HRG-induced Akt activation (log2) follow.
Note to self: HRG-induced Akt activation (log2) recorded for GGGCGACAAAGCAAGACUCUUUCUU was 1.56

response.value for UACGUAGAUAUAUAUGUAUUUU (field: HRG-induced Akt activation (log2)) = 1.5

Quick note, HRG-induced Akt activation (log2) for AGCUCGGUCUGAGGCCCCUCAGU landed at 0.753

Query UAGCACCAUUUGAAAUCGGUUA yields HRG-induced Akt activation (log2) of 1.17

get_value(item= AGCUGUCUGAAAAUGUCUU , readout=HRG-induced Akt activation (log2)) returns 1.08

# sequence UCAAAUGCUCAGACUCCUGUGGU ; its HRG-induced Akt activation (log2) = 1.63

Record summary for AGAGAAGAAGAUCAGCCUGCA : reported HRG-induced Akt activation (log2) = 1.08

Value of measured HRG-induced Akt activation (log2) for the entry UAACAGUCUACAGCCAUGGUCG : 1.37

Here is the next item to consider.
# HRG-induced Akt activation (log2) of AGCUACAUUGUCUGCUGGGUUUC = 1.72

====

# Test system: MCF7
# ASSAY_INFO: HRG-induced Akt activation (dPAkt = log2 pAkt/Akt HRG-stimulated minus log2 pAkt/Akt basal) (log2 ratio difference); higher = stronger HRG-induced Akt(T308) phosphorylation
# EXPERIMENTAL_CONTEXT: miRNA mimic concentration 10 nM; time after transfection 72 h; heregulin 10 ng/ml; stimulation time 1 h
MEASURE: HRG-induced Akt activation (log2)
Numbers only.

Could I get HRG-induced Akt activation (log2) for every one of these entries?
1. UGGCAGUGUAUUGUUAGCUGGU
2. UUAAUAUCGGACAACCAUUGU
3. UCAUAUUGCUUCUUUCU
4. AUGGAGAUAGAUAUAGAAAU

1: 2.12; 2: 1.72; 3: 1.79; 4: 1.51

List the reported HRG-induced Akt activation (log2) of each sequence below.
1. UCGACAGCACGACACUGCCUUC
2. UACUGCAGACGUGGCAAUCAUG
3. CGCAGGGGCCGGGUGCUCACCG

1. 1.4
2. 1
3. 1.59

====

# Tested on: MCF7
# ASSAY_INFO: HRG-induced Akt activation (dPAkt = log2 pAkt/Akt HRG-stimulated minus log2 pAkt/Akt basal) (log2 ratio difference); higher = stronger HRG-induced Akt(T308) phosphorylation
# EXPERIMENTAL_CONTEXT: miRNA mimic concentration 10 nM; time after transfection 72 h; heregulin 10 ng/ml; stimulation time 1 h
Exercise: state measured HRG-induced Akt activation (log2) for each of the sequences provided.
Give bare numbers.

The recorded HRG-induced Akt activation (log2) for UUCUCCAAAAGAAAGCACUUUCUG is 2.57

Sample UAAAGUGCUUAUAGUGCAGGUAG ; HRG-induced Akt activation (log2) observed: 1.57

get_value(item= UGCAACGAACCUGAGCCACUGA , readout=HRG-induced Akt activation (log2)) returns 1.49

Field HRG-induced Akt activation (log2) (entry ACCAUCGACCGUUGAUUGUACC ) reads 1.35

I'm hoping you can list HRG-induced Akt activation (log2) for every sequence here, please.
1. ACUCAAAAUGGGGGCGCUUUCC
2. AGAGCUUAGCUGAUUGGUGAAC
3. GAUGAUGCUGCUGAUGCUG
4. CUGGACUGAGCCGUGCUACUGG
5. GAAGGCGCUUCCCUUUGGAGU
6. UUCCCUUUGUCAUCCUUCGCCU
7. AAAUCUCUGCAGGCAAAUGUGA

1: 1.51; 2: 1.58; 3: 1.07; 4: 1.98; 5: 1.41; 6: 1; 7: 1.19

Dear reader, for each entry below, please note its HRG-induced Akt activation (log2).
1. UGCUGGAUCAGUGGUUCGAGUC
2. ACCACUGACCGUUGACUGUACC
3. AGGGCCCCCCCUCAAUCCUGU
4. CUCAGUAGCCAGUGUAGAUCCU
5. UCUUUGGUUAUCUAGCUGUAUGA
6. CACAUUACACGGUCGACCUCU

1. 2.32
2. 1.81
3. 1.95
4. 1.53
5. 1.96
6. 1.17
